- Tested on: mouse long-term hematopoietic stem cells
- experiment: Reproducibility and concentration dependence test: 1-week culture of sorted Hoxb5-tri-mCherry mouse long-term hematopoietic stem cells, flow cytometry
- Type: cell-based
- assayConditions: Table 3; compound 0.3 μM; day 7 of culture; n=2
Recorded Viable cell count, one value per entry.

{"compound": "CCO[C@H]1O[C@@H]2O[C@@]3(C)CC[C@H]4[C@H](C)CC[C@@H]([C@H]1C)[C@@]24OO3 [Example 1-31, artemotil, reference compound]", "unitDescriptor": "cell", "Viable cell count": 1529}
{"compound": "C[C@H]1[C@H](OC(=O)CCC(=O)O)O[C@@H]2O[C@@]3(C)CC[C@H]4[C@H](C)CC[C@@H]1[C@@]24OO3 [Example 1-32, artesunate, reference compound]", "unitDescriptor": "cell", "Viable cell count": 540}
{"compound": "CO[C@H]1O[C@@H]2O[C@@]3(C)CC[C@H]4[C@H](C)CC[C@@H]([C@H]1C)[C@@]24OO3 [Example 1-30, artemether, reference compound]", "unitDescriptor": "cell", "Viable cell count": 2632}
{"compound": "C[C@H]1[C@@H](O)O[C@@H]2O[C@@]3(C)CC[C@H]4[C@H](C)CC[C@@H]1[C@@]24OO3 [Example 1-29, artenimol, reference compound]", "unitDescriptor": "cell", "Viable cell count": 2268}
{"compound": "C[C@@H]1CC[C@H]2[C@@H](C)C(=O)O[C@@H]3O[C@@]4(C)CC[C@@H]1[C@]32OO4 [Example 1-33, artemisinin, reference compound]", "unitDescriptor": "cell", "Viable cell count": 1020}

====

- System: human hematopoietic stem cells (CD34-positive cells)
- experiment: Confirmation test with human cells: 1-week culture of cord blood Lineage-negative CD34-positive cells, flow cytometry
- Format: cell-based
- assayConditions: compound 0.3 μM, 180 cells before culture, no UM171
testReadout: Viable cell count (cell)

{"compound": "CO[C@H]1O[C@@H]2O[C@@]3(C)CC[C@H]4[C@H](C)CC[C@@H]([C@H]1C)[C@@]24OO3 [Example 1-30, artemether, reference compound]", "testReadout": "Viable cell count", "observedResult": 550}
{"compound": "COCCO[C@H]1O[C@@H]2O[C@@]3(C)CC[C@H]4[C@H](C)CC[C@@H]([C@H]1C)[C@@]24OO3 [Example 1-23]", "testReadout": "Viable cell count", "observedResult": 462}
{"compound": "C[C@H]1[C@H](c2ccco2)O[C@@H]2O[C@@]3(C)CC[C@H]4[C@H](C)CC[C@@H]1[C@@]24OO3 [Example 1-7]", "testReadout": "Viable cell count", "observedResult": 439}
{"compound": "C[C@H]1[C@H](C(N)=O)O[C@@H]2O[C@@]3(C)CC[C@H]4[C@H](C)CC[C@@H]1[C@@]24OO3 [Example 1-16]", "testReadout": "Viable cell count", "observedResult": 549}

====

- System: mouse long-term hematopoietic stem cells
- experiment: Reproducibility and concentration dependence test: 1-week culture of sorted Hoxb5-tri-mCherry mouse long-term hematopoietic stem cells, flow cytometry
- Assay type: cell-based
- assayConditions: Table 4; compound 0.3 μM; day 7 of culture; n=2
testReadout: Viable cell count (cell)

{"smi": "C[C@H]1[C@H](n2cc(-c3ccccc3)nn2)O[C@@H]2O[C@@]3(C)CC[C@H]4[C@H](C)CC[C@@H]1[C@@]24OO3", "observedResult": 500.0}
{"smi": "CS[C@H]1O[C@@H]2O[C@@]3(C)CC[C@H]4[C@H](C)CC[C@@H]([C@H]1C)[C@@]24OO3", "observedResult": 103.0}
{"smi": "C[C@H]1[C@@H](c2ccccc2)O[C@@H]2O[C@@]3(C)CC[C@H]4[C@H](C)CC[C@@H]1[C@@]24OO3", "observedResult": 0.5}

====

Measured CD34-positive cell count by item
- Test system: human hematopoietic stem cells (CD34-positive cells)
- experiment: Confirmation test with human cells: 1-week culture of cord blood Lineage-negative CD34-positive cells, flow cytometry
- Type: cell-based
- assayConditions: compound 0.03 μM, 180 cells before culture, no UM171

{"compound": "C[C@H]1[C@H](C(N)=O)O[C@@H]2O[C@@]3(C)CC[C@H]4[C@H](C)CC[C@@H]1[C@@]24OO3", "targetUnderTest": "human hematopoietic stem cells (CD34-positive cells)", "CD34-positive cell count / cell": 130}
{"compound": "CO[C@H]1O[C@@H]2O[C@@]3(C)CC[C@H]4[C@H](C)CC[C@@H]([C@H]1C)[C@@]24OO3 [Example 1-30, artemether, reference compound]", "targetUnderTest": "human hematopoietic stem cells (CD34-positive cells)", "CD34-positive cell count / cell": 23}
{"compound": "C[C@H]1[C@H](c2ccco2)O[C@@H]2O[C@@]3(C)CC[C@H]4[C@H](C)CC[C@@H]1[C@@]24OO3", "targetUnderTest": "human hematopoietic stem cells (CD34-positive cells)", "CD34-positive cell count / cell": 86}
{"compound": "COCCO[C@H]1O[C@@H]2O[C@@]3(C)CC[C@H]4[C@H](C)CC[C@@H]([C@H]1C)[C@@]24OO3", "targetUnderTest": "human hematopoietic stem cells (CD34-positive cells)", "CD34-positive cell count / cell": 63}

====

- Test system: mouse long-term hematopoietic stem cells
- experiment: Reproducibility and concentration dependence test: 1-week culture of sorted Hoxb5-tri-mCherry mouse long-term hematopoietic stem cells, flow cytometry
- Assay type: cell-based
- assayConditions: Table 4; compound 10 μM; day 7 of culture; n=2
Record 1 whenever KLS-positive rate is at 30% or higher; record 0 when lower.

{"compound": "C[C@@H]1CC[C@H]2[C@@H](C)C(=O)O[C@@H]3O[C@@]4(C)CC[C@@H]1[C@]32O4", "assignedLabel": 0}
{"compound": "C[C@H]1[C@@H](Oc2ccccc2)O[C@@H]2O[C@@]3(C)CC[C@H]4[C@H](C)CC[C@@H]1[C@@]24OO3", "assignedLabel": 0}
{"compound": "C[C@H]1[C@@H](O)O[C@@H]2O[C@@]3(C)CC[C@H]4[C@H](C)CC[C@@H]1[C@@]24OO3 [Example 1-29, artenimol, reference compound]", "assignedLabel": 1}
{"compound": "C[C@H]1[C@H](N(C)C)O[C@@H]2O[C@@]3(C)CC[C@H]4[C@H](C)CC[C@@H]1[C@@]24OO3", "assignedLabel": 1}
{"compound": "CO[C@H]1O[C@@H]2O[C@@]3(C)CC[C@H]4[C@H](C)CC[C@@H]([C@H]1C)[C@@]24OO3 [Example 1-30, artemether, reference compound]", "assignedLabel": 1}
{"compound": "CC(=O)OCCO[C@@H]1O[C@@H]2O[C@@]3(C)CC[C@H]4[C@H](C)CC[C@@H]([C@H]1C)[C@@]24OO3", "assignedLabel": 1}
{"compound": "C[C@H]1[C@H](n2cc(-c3ccccc3)nn2)O[C@@H]2O[C@@]3(C)CC[C@H]4[C@H](C)CC[C@@H]1[C@@]24OO3", "assignedLabel": 0}
{"compound": "C[C@H]1[C@@H](C(N)=O)O[C@@H]2O[C@@]3(C)CC[C@H]4[C@H](C)CC[C@@H]1[C@@]24OO3", "assignedLabel": 1}
{"compound": "C[C@H]1[C@@H](C)O[C@@H]2O[C@@]3(C)CC[C@H]4[C@H](C)CC[C@@H]1[C@@]24OO3", "assignedLabel": 1}
{"compound": "C[C@H]1[C@@H](c2ccccc2)O[C@@H]2O[C@@]3(C)CC[C@H]4[C@H](C)CC[C@@H]1[C@@]24OO3", "assignedLabel": 0}
{"compound": "C[C@H]1[C@H](Oc2ccccc2)O[C@@H]2O[C@@]3(C)CC[C@H]4[C@H](C)CC[C@@H]1[C@@]24OO3", "assignedLabel": 0}
{"compound": "C[C@H]1[C@H](C(N)=O)O[C@@H]2O[C@@]3(C)CC[C@H]4[C@H](C)CC[C@@H]1[C@@]24OO3", "assignedLabel": 1}
{"compound": "C[C@H]1[C@H](c2ccco2)O[C@@H]2O[C@@]3(C)CC[C@H]4[C@H](C)CC[C@@H]1[C@@]24OO3", "assignedLabel": 0}
{"compound": "CC(C)O[C@H]1O[C@@H]2O[C@@]3(C)CC[C@H]4[C@H](C)CC[C@@H]([C@H]1C)[C@@]24OO3", "assignedLabel": 0}
{"compound": "C[C@H]1[C@H](C(=O)O)O[C@@H]2O[C@@]3(C)CC[C@H]4[C@H](C)CC[C@@H]1[C@@]24OO3", "assignedLabel": 0}
{"compound": "CS[C@@H]1O[C@@H]2O[C@@]3(C)CC[C@H]4[C@H](C)CC[C@@H]([C@H]1C)[C@@]24OO3", "assignedLabel": 1}
{"compound": "C[C@H]1[C@@H](CN)O[C@@H]2O[C@@]3(C)CC[C@H]4[C@H](C)CC[C@@H]1[C@@]24OO3", "assignedLabel": 1}
{"compound": "C[C@@H]1CC[C@H]2[C@@H](C)C(=O)O[C@@H]3O[C@@]4(C)CC[C@@H]1[C@]32OO4 [Example 1-33, artemisinin, reference compound]", "assignedLabel": 0}
{"compound": "C[C@H]1[C@@H](OCC(F)(F)F)O[C@@H]2O[C@@]3(C)CC[C@H]4[C@H](C)CC[C@@H]1[C@@]24OO3", "assignedLabel": 0}
{"compound": "CCO[C@H]1O[C@@H]2O[C@@]3(C)CC[C@H]4[C@H](C)CC[C@@H]([C@H]1C)[C@@]24OO3 [Example 1-31, artemotil, reference compound]", "assignedLabel": 0}
{"compound": "C[C@H]1[C@@H](OCc2ccccc2)O[C@@H]2O[C@@]3(C)CC[C@H]4[C@H](C)CC[C@@H]1[C@@]24OO3", "assignedLabel": 0}
{"compound": "CC(=O)OCCOC1O[C@@H]2O[C@@]3(C)CC[C@H]4[C@H](C)CC[C@@H]([C@H]1C)[C@@]24OO3 (stereo in doubt)", "assignedLabel": 0}
{"compound": "C[C@H]1[C@H](NS(C)(=O)=O)O[C@@H]2O[C@@]3(C)CC[C@H]4[C@H](C)CC[C@@H]1[C@@]24OO3", "assignedLabel": 1}
{"compound": "CO[C@@H]1O[C@@H]2O[C@@]3(C)CC[C@H]4[C@H](C)CC[C@@H]([C@H]1C)[C@@]24OO3", "assignedLabel": 1}
